What EC50 was measured for each of the following?
Target: PD-1/PD-L1 interaction (Homo sapiens, UniProt Q9NZQ7)
Construct: expressed in transfected cells; host or cells: CHO cells (aAPC-PD-L1) co-cultured with Jurkat cells overexpressing PD-1 and an NFAT-luciferase reporter
Sequence (Q9NZQ7 19-290): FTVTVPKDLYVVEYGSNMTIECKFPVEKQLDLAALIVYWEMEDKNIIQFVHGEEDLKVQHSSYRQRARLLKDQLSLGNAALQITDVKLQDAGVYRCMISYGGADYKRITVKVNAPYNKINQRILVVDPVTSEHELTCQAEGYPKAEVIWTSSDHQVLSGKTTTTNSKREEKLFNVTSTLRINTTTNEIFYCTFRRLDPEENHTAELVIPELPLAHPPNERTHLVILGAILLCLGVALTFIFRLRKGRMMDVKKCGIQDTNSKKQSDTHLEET
Experiment: PD-1/PD-L1 NFAT reporter co-culture assay
Format: cell-based
Settings: Jurkat PD-1 NFAT-luciferase cells co-cultured with aAPC-PD-L1 CHO cells, 6 hrs at 37° C.; read-out: EC50 NFAT Luciferase
The response must be a number in µM with no trailing unit.

Just so you know, measured EC50 for COc1nc(-c2ccc(-c3cccc(-c4ccc(CNC[C@@H]5CCC(=O)N5)c(OC)n4)c3Cl)s2)ccc1CNC[C@@H]1CCC(=O)N1 came out at 0.748

The recorded EC50 for COc1nc(OCc2cccc(-c3cccc(COc4nc(OC)c(CN[C@](C)(CO)C(=O)O)cc4Br)c3C)c2C)c(Br)cc1CN[C@](C)(CO)C(=O)O is 0.087

For reference, reported EC50 for COc1nc(OCc2cccc(-c3cccc(COc4ccc(CNC[C@@H](O)CC(=O)O)c(OC)n4)c3C)c2C)ccc1CNC[C@@H](O)CC(=O)O stands at 5.14

Entry under test: COCCCOc1nc(OCc2cccc(-c3cccc(COc4nc(OCCCOC)c(CNC[C@@H](O)CC(=O)O)cc4Br)c3C)c2C)c(Br)cc1CNC[C@@H](O)CC(=O)O . Its EC50 was 0.668

The measured EC50 associated with COc1nc(-c2cccc(-c3cccc4c3CC[C@@H]4Oc3nc(OCc4cncc(C#N)c4)c(CNC[C@@H](O)CC(=O)O)cc3Cl)c2Cl)ccc1CN1CC2(CCC(=O)N2)C1 reads 0.098

====

Target: PD-1/PD-L1 interaction (Homo sapiens, UniProt Q9NZQ7)
Construct: expressed in transfected cells; host or cells: CHO cells (aAPC-PD-L1) co-cultured with Jurkat cells overexpressing PD-1 and an NFAT-luciferase reporter
Assay: PD-1/PD-L1 NFAT reporter co-culture assay
Assay type: cell-based
Settings: Jurkat PD-1 NFAT-luciferase cells co-cultured with aAPC-PD-L1 CHO cells, 6 hrs at 37° C.; read-out: EC50 NFAT Luciferase
Reported property: pEC50
Kindly note that pEC50 refers to -log10 of the concentration in mol/L and answer with the value alone.

Item COc1nc(O[C@H]2CCc3c(-c4cccc(-c5cnc(CNC[C@@H]6CCC(=O)N6)c(OC)n5)c4Cl)cccc32)c(Cl)cc1CN[C@@H]1CCC[C@@H]1O [Example 642] ; assay system PD-1/PD-L1 interaction (Homo sapiens, UniProt Q9NZQ7); pEC50 reported as 6.71

Simply: Cc1c(COc2cc(OCc3cncc(C#N)c3)c(CNC[C@@H](O)CC(=O)O)cc2Cl)cccc1-c1cccc(-c2ccc(CNC[C@@H](O)CC(=O)O)c(OC(F)F)c2)c1C [Example 461] , PD-1/PD-L1 interaction (Homo sapiens, UniProt Q9NZQ7), pEC50 = 7.33

With PD-1/PD-L1 interaction (Homo sapiens, UniProt Q9NZQ7) as the test system, COc1nc(-c2cccc(-c3cccc4c3CC[C@@H]4Oc3ccc(CN[C@@](C)(CO)C(=O)O)c(OCc4cncc(C#N)c4)n3)c2C)ccc1C1=NCCN1 [Example 750] showed pEC50 of 6.65

// returns pEC50 for Cc1c(COc2ccc(CNC[C@@H](O)CC(=O)O)c(OCc3cc(C#N)ccc3F)c2)cccc1-c1cccc(COc2ccc(CNC[C@@H](O)CC(=O)O)c(OCc3cc(C#N)ccc3F)c2)c1C [Example 265] with PD-1/PD-L1 interaction (Homo sapiens, UniProt Q9NZQ7); value = 5.15
